Observed Property: IC50
Entry format: amount then unit.

## Task Request body: readout IC50, system BGC823 cell line, query COc1cc(C2c3cc4c(cc3C(Nc3ccc(Cl)c(C)c3)C3COC(=O)C23)OCO4)cc(OC)c1OC (stereo not shown) [Compound 1] . Return the value.
## Result 620 nM

====

Observed Property: pIC50
Hey, just a heads up that pIC50 is the negative log base 10 of the concentration in molar.

## Task Request body: readout pIC50, system Hela cell line, query COc1cc(C2c3cc4c(cc3C(Nc3ccc(Cl)c(C)c3)C3COC(=O)C23)OCO4)cc(OC)c1OC (stereo not shown) . Return the value.
## Result 5.90

====

Consider the following compounds; for each one, report its IC50.
system: A549 cell line; test: MTT test of inhibiting tumor cell activity, A549; conditions: read-out: Cytotoxic activity (IC50, μM) A549; A549 cells, MTT, 48 h cultivation
State the answer as a number, implicitly in µM.

## Task Reported IC50, compound COc1ccccc1NC1c2cc3c(cc2C(c2cc(OC)c(OC)c(OC)c2)C2C(=O)OCC12)OCO3 (centres unmarked) : ____
## Result 3.41

## Task Reported IC50, compound COc1ccc(Cl)cc1NC1c2cc3c(cc2C(c2cc(OC)c(O)c(OC)c2)C2C(=O)OCC12)OCO3 (centres unmarked) : ____
## Result 3.72

## Task Reported IC50, compound COc1cc(C2c3cc4c(cc3C(O)C3COC(=O)C23)OCO4)cc(OC)c1O (centres unmarked) [4′-demethylepipodophyllotoxin, reference compound] : ____
## Result 52

## Task Reported IC50, compound COc1cc(C2c3cc4c(cc3C(Nc3cccc(S(=O)(=O)N(C)C)c3)C3COC(=O)C23)OCO4)cc(OC)c1O (centres unmarked) : ____
## Result 2.08

## Task Reported IC50, compound COc1cc(C2c3cc4c(cc3C(Nc3cc(Cl)c(O)c(Cl)c3)C3COC(=O)C23)OCO4)cc(OC)c1O (centres unmarked) : ____
## Result 9.41

## Task Reported IC50, compound COc1cc(C2c3cc4c(cc3C(Nc3ccccc3C(F)(F)F)C3COC(=O)C23)OCO4)cc(OC)c1OC (centres unmarked) : ____
## Result 2.11

## Task Reported IC50, compound COc1cc(C2c3cc4c(cc3C(Nc3ccccc3C#N)C3COC(=O)C23)OCO4)cc(OC)c1OC (centres unmarked) : ____
## Result 1.02

## Task Reported IC50, compound COc1cc([C@@H]2c3cc4c(cc3[C@@H](O[C@@H]3O[C@@H]5CO[C@@H](C)O[C@H]5[C@H](O)[C@H]3O)[C@H]3COC(=O)[C@H]23)OCO4)cc(OC)c1O [VP-16, etoposide, reference compound] : ____
## Result 31.1

## Task Reported IC50, compound COc1cc(C2c3cc4c(cc3C(Nc3ccc(Cc5ccc(N)cc5)cc3)C3COC(=O)C23)OCO4)cc(OC)c1OC (centres unmarked) : ____
## Result 2.32

## Task Reported IC50, compound COc1cc(C2c3cc4c(cc3C(Nc3ccc(Cc5ccc(N)cc5)cc3)C3COC(=O)C23)OCO4)cc(OC)c1O (centres unmarked) : ____
## Result 2.2

## Task Reported IC50, compound COc1cc(C2c3cc4c(cc3C(Nc3ccccc3C(F)(F)F)C3COC(=O)C23)OCO4)cc(OC)c1O (centres unmarked) : ____
## Result 9.72

## Task Reported IC50, compound COc1ccc(NC2c3cc4c(cc3C(c3cc(OC)c(O)c(OC)c3)C3C(=O)OCC23)OCO4)cc1F (centres unmarked) : ____
## Result 3.04

## Task Reported IC50, compound COc1cc(C2c3cc4c(cc3C(Nc3ccccc3Sc3ccccc3N)C3COC(=O)C23)OCO4)cc(OC)c1O (centres unmarked) : ____
## Result 1.42

## Task Reported IC50, compound COc1ccc(Cl)cc1NC1c2cc3c(cc2C(c2cc(OC)c(OC)c(OC)c2)C2C(=O)OCC12)OCO3 (centres unmarked) : ____
## Result 1.71
